- Study system: T1, cynomolgus (Macaca fascicularis) ST2L extracellular domain with C-terminal His6 tag (Macaca fascicularis (cynomolgus), UniProt Q01638 19-321 (human entry))
- T1 construct: also called cyno ST2L-ECD; cynoST2L-ECD
- T1 chain: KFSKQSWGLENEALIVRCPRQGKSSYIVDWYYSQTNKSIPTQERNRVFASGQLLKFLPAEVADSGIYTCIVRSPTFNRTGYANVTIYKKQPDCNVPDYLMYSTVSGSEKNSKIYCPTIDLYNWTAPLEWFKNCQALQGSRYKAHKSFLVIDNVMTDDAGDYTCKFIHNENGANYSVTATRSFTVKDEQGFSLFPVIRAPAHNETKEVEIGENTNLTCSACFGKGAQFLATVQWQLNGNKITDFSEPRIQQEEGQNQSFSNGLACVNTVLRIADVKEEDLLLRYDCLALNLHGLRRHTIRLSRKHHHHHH
- Protocol details: SPR, mAb captured, ST2L-ECD in solution
Experimental readout: kon (M⁻¹ s⁻¹)
// units = M⁻¹ s⁻¹; emit number, no label

Need kon of STLM209 (antibody, V domains shown, frameworks VH3-23 / Vk-L6) VH: EVQLLESGGGLVQPGGSLRLSCAASGFTFSIYDMIWVRQAPGKGLEWVSTIRGEGGGTSYADSVKGRFTISRDNSKNTLYLQMNSLRAEDTAVYYCARDPWSTEGSFFVLDYWGQGTLVTVSS VL: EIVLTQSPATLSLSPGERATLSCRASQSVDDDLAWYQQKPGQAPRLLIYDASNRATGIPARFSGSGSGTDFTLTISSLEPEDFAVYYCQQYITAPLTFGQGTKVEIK , thanks.
3.39e+07

And what about the binder STLM222 (antibody, V domains shown, frameworks VH3-23 / Vk-L6) VH: EVQLLESGGGLVQPGGSLRLSCAASGFTFSIYSMFWVRQAPGKGLEWVSDIGGEGGGTSYADSVKGRFTISRDNSKNTLYLQMNSLRAEDTAVYYCARDPWSTEGSFFVLDYWGQGTLVTVSS VL: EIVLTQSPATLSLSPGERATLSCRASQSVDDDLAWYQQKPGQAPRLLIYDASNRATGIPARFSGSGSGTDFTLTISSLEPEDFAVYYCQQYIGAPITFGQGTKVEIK ?
1.18e+07

And what about the binder STLM217 (antibody, V domains shown, frameworks VH3-23 / Vk-L6) VH: EVQLLESGGGLVQPGGSLRLSCAASGFTFSVYDMFWVRQAPGKGLEWVSDIKGEGGETSYADSVKGRFTISRDNSKNTLYLQMNSLRAEDTAVYYCARDPWSTEGSFFVLDYWGQGTLVTVSS VL: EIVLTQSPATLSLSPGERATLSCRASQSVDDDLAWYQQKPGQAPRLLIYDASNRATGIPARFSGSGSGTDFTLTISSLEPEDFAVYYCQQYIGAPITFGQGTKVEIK ?
3.81e+07
